assay: Pharmacokinetic study of I-11 in female BALB/c mice (Example 4); format: in vivo, Balb/c mouse; conditions: mouse, plasma, PO 100 mg/kg
PROPERTY LABEL: MRT last (h)
Give the value, in units of h, as a plain number.

Param item = CC(C)Cc1sc(Nc2ncc(-c3cccs3)cc2C(=O)O)nc1C(C)(C)C ; retrieve measured MRT last.
3.37

###

experiment: Pharmacokinetic studies of certain compounds in female Balb/c mice (Example 5); assay type: in vivo; conditions: female, Balb/c, mouse, plasma, iv, 1 mg/kg, I-27 IV 1 mg/kg, 0.083 hr, read-out: Plasma concentration Mean
PROPERTY LABEL: concentration at 0.083 h

Dear colleague, I am looking for the recorded concentration at 0.083 h of the following compound: CC(C)Cc1sc(Nc2ncc(-c3cccs3)cc2C(=O)O)nc1C1(C)CCCCC1 [Compound I-27]
4750 ng/mL
